Tested on: NHBE cells
Experiment notes: Biolog metabolic array: substrate use by NHBE cells with or without CA09 infection
Type: cell-based, human
Test context: Control (uninfected) NHBE cells, 2 hr
Field: 590 nm absorbance normalized to zero hour (substrate use), 2 hr. Provide a value for each of the compounds that follow.
Give bare numbers.

Compound: O=C(CO)[C@@H](O)[C@H](O)[C@H](O)COP(=O)(O)O [D-Fructose-6-Phosphate]
Reported result: 0.90
--
Compound: O=C(O)CC(O)(CC(=O)O)C(=O)O
Reported result: 1.41
--
Compound: CO[C@@H]1OC[C@@H](O)[C@H](O)[C@H]1O [b-Methyl-D-Xyloside]
Reported result: 6.40
--
Compound: OC[C@H]1O[C@@](CO)(O[C@H]2O[C@H](CO)[C@@H](O)[C@H](O)[C@H]2O)[C@@H](O[C@H]2O[C@H](CO)[C@@H](O)[C@H](O)[C@H]2O)[C@@H]1O
Reported result: 1.93
--
Compound: OC[C@H]1O[C@H](O[C@H]2[C@H](O)[C@@H](O)[C@H](O)O[C@@H]2CO)[C@H](O)[C@@H](O)[C@@H]1O
Reported result: 1.04
--
Compound: O=P(O)(O)OC[C@H](O)CO (racemic) [D,L-a-Glycerol Phosphate]
Reported result: 0.48

Please state 590 nm absorbance normalized to zero hour (substrate use), 2 hr for every compound in the list that follows.
1. CCCCCC(=O)O
2. C[C@@H](O)CC(=O)O [b-Hydroxy-Butyric Acid]
3. OC[C@H]1O[C@H](OC[C@H]2O[C@H](OC[C@H]3O[C@H](O[C@]4(CO)O[C@H](CO)[C@@H](O)[C@@H]4O)[C@H](O)[C@@H](O)[C@@H]3O)[C@H](O)[C@@H](O)[C@H]2O)[C@H](O)[C@@H](O)[C@H]1O
4. O=C(CO)[C@@H](O[C@H]1O[C@H](CO)[C@@H](O)[C@H](O)[C@H]1O)[C@H](O)[C@H](O)CO
5. OC[C@H]1O[C@@H]2O[C@H]3[C@H](O)[C@@H](O)[C@@H](O[C@H]4[C@H](O)[C@@H](O)[C@@H](O[C@H]5[C@H](O)[C@@H](O)[C@@H](O[C@H]6[C@H](O)[C@@H](O)[C@@H](O[C@H]7[C@H](O)[C@@H](O)[C@@H](O[C@H]1[C@H](O)[C@H]2O)O[C@@H]7CO)O[C@@H]6CO)O[C@@H]5CO)O[C@@H]4CO)O[C@@H]3CO
6. OC[C@@H]1OC(O)[C@@H](O)[C@H](O)[C@H]1O (stereo partly shown)

(A)
1: 1.47; 2: 2.08; 3: 8.20; 4: 0.31; 5: 2.66; 6: 2.20

(Q) Form field: 590 nm absorbance normalized to zero hour (substrate use), 2 hr recorded for "OC[C@H]1O[C@@H](O[C@H]2[C@H](O)[C@@H](O)[C@H](O)O[C@@H]2CO)[C@H](O)[C@@H](O)[C@@H]1O" with NHBE cells (enter value)
(A) 2.30
